Recorded % Inhibition (FS) values for a group of compounds are listed next.
Target: β-secretase (BACE) (Homo sapiens)
Construct: purchased Panvera
Sequence (P56817 46-501): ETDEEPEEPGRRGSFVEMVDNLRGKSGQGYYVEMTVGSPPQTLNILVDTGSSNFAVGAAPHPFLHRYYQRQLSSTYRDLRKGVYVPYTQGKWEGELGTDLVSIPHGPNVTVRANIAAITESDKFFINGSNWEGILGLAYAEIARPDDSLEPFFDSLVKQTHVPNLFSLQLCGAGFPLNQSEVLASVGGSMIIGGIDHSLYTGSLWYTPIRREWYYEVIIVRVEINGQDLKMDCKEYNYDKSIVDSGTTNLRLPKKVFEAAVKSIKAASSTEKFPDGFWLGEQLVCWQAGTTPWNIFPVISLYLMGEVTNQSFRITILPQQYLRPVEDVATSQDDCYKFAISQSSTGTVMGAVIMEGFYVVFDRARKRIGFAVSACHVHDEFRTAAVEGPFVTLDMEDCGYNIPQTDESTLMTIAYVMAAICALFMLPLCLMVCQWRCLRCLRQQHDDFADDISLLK
Assay: BACE FS1 % Inhibition Assay
Format: biochemical
Conditions: 3 μM test compound
Just the number please, in %, no unit attached.

[[record]]
compound = "NC1=Nc2ccc(Oc3ccccc3)cc2CN1CC(NC(=O)C1CCCCC1)C1CCCCC1 (stereo not shown)"
unitannotation = "%"
testresult = 73

[[record]]
compound = "CCCC(CCCC(=O)NC1CCCCC1)N1Cc2cc(Oc3ccccc3)ccc2N=C1N (stereo not shown)"
unitannotation = "%"
testresult = 68


Next:
Lab note: measured % Inhibition (FS) of NC1=Nc2ccc(Oc3ccccc3)cc2CN1CC1CCN(C(=O)C23CC4CC(CC(C4)C2)C3)CC1 was 51

Origin of measurements: patent US8426429B2
